# Test system: MS2 coat protein
# Test summary: apparent KD of MS2 coat protein; designed switch direction (-1 OFF switch, 1 ON switch): 1; higher = weaker reporter binding
# Measurement conditions: input ligand: FMN 200 uM
Property name: apparent KD of MS2 coat protein (nM)
The reply should contain only the number, in nM.

For orientation, consider the following solved cases.
chain_sequence="AUUAUUAAUGCAGGAUAUGAUUAACAUGAGGAUCACCCAUGUGGUGUUGUGAGUAAGGAGAGAGAUCAGAAGGGCAUUUUUUUU [JMF's solution 5] (Eterna round: R96, puzzle: Same State NG 2)" measured_on="MS2 coat protein" property_name="apparent KD of MS2 coat protein" unit_symbol=nM numeric_value=317
chain_sequence="GGAAUAUGAUGUUACAUGAGGAUCACCCAUGUAGUAAUAACUAAGGAUAUUUGAAAGGGAGGAGAAGAGAAGGUAGGAUCAUAA [AK SSNG3-V2-11] (Eterna round: R96, puzzle: Same State NG 3)" measured_on="MS2 coat protein" property_name="apparent KD of MS2 coat protein" unit_symbol=nM numeric_value=61
chain_sequence="GUUACAUGAGGAUCACCCAUGUAUGUGUGGGAGUAAGUGUCUUAGGAUAUCUAGGAUUUAAUUUAAGAGAAGGAAGAUUGUUGU [JMF's solution 50] (Eterna round: R96, puzzle: Same State NG 3)" measured_on="MS2 coat protein" property_name="apparent KD of MS2 coat protein" unit_symbol=nM numeric_value=89.7
chain_sequence="UGGCUCAGAGCAGGAUAUAUGCGAUCACAUGAGGAUCACCCAUGUCUCGAGCUUCGGCUCGAGGCAUAGAAGGGCUCUGAGCCU [SSNG2/4-B3] (Eterna round: R96, puzzle: Same State NG 2)" measured_on="MS2 coat protein" property_name="apparent KD of MS2 coat protein" unit_symbol=nM numeric_value=14.9
chain_sequence="GGAGCCGGCCUAGGAUAUUUCAUAAAAUUACAUGAGGAUCACCCAUGUAGGCCAGAAGGCCUUGGGAAGAAGGAGGUCGGCUCC [Loop Effect - U28,U29] (Eterna round: R96, puzzle: Same State NG 2)" measured_on="MS2 coat protein" property_name="apparent KD of MS2 coat protein" unit_symbol=nM numeric_value=12.9
chain_sequence="GCCGGCUGGUGAGGAUAUGGCACCUUAUUGGUGCCAGAAGGCAUGUCAAUUGACAUGAGGAUCACCCAUGUGUUGUCGUUGGCG [salish99_SSNG1_r04_609] (Eterna round: R96, puzzle: Same State NG 1)" measured_on="MS2 coat protein" property_name="apparent KD of MS2 coat protein" unit_symbol=nM numeric_value=698
chain_sequence="GCCGGCUGAUGAGGAUAUGGCACCUUAUUGGUGCCAGAAGGCAUGUCAAUUGACAUGAGGAUCACCCAUGUAUUAUAGUUGGCG [salish99_SSNG1_r04_604] (Eterna round: R96, puzzle: Same State NG 1)" measured_on="MS2 coat protein" property_name="apparent KD of MS2 coat protein" unit_symbol=nM numeric_value=117
chain_sequence="GCCAACUCAUGAGGAUAUGGCACCUUAUUGGUGCCAGAAGGCAUGUCAAUUGACAUGAGGAUCACCCAUGUAUUAUAGUUGGCA [Fiskers NG1ss - 22] (Eterna round: R96, puzzle: Same State NG 1)" measured_on="MS2 coat protein" property_name="apparent KD of MS2 coat protein" unit_symbol=nM numeric_value=62.5

API: the following record is the query input.
// apparent KD of MS2 coat protein lookup, sequence = GAGGGACAGACCAACAUGAGGAUCACCCAUGUCCUCGCAGGUCAGGAUAUCAUGAGGAUCACCCAUGAGAAGGGACGGUGAACC (Eterna round: R96, puzzle: Same State NG 3) , result: 155

###

The reader will find reported apparent KD of MS2 coat protein values listed item by item below.
# System: MS2 coat protein
# Test summary: apparent KD of MS2 coat protein; designed switch direction (-1 OFF switch, 1 ON switch): 1; higher = weaker reporter binding
# Measurement conditions: input ligand: FMN 200 uM
The reply should contain only the number, in nM.

chain_sequence="GGGAGAGGCGCAGGAUAUGGUGAGGAUCACCCACUAGAAGGGUGCACAUGAGAAUCGGACAUGAGGAUCACCCAUGUUUGGCGC (Eterna round: R96, puzzle: Same State NG 1)" measured_on="MS2 coat protein" property_name="apparent KD of MS2 coat protein" numeric_value=393

// apparent KD of MS2 coat protein lookup, sequence = UUGGUUGUCGUAGGAUAUGUAGGAUAUUCCUACAUGAGGAUCACCCAUGUUCGCAUGGAAGAAGGACAGAAGGACGAUGACCAU [pwkr ssNG2 2FMN + 1F5.20] (Eterna round: R96, puzzle: Same State NG 2) , result: 16.8

// apparent KD of MS2 coat protein lookup, sequence = GGAGCCGGUACUGAGGAUAUUCAUAUUAAAACAUGAGGAUCACCCAUGUAGGCCAGAAGGCCUUGGGAGAAGGCAGAUCGGCUCC [Biceusra] (Eterna round: R96, puzzle: Same State 2) , result: 19

// apparent KD of MS2 coat protein lookup, sequence = ACCGCGUUUCGCGCCUACAUGAGGAUCACCCAUGUUUGUAGGCAGGAUAUCGUCCGCUCUGCGGGCGAGAAGGGCUGUUGUGGU [salish99_SSNG3_R04_028] (Eterna round: R96, puzzle: Same State NG 3) , result: 49.3

// apparent KD of MS2 coat protein lookup, sequence = GGUGGGUUACUACCCACACAUGAGGAUCACCCAUGUAUUGGGAAGGAUAUGGUGCCUGUGUGGUACCAGAAGGUCGUGAAGGUG [SS-NG3-LRO19] (Eterna round: R96, puzzle: Same State NG 3) , result: 580

###

The reader will find reported apparent KD of MS2 coat protein values listed item by item below.
# Test system: MS2 coat protein
# Test summary: apparent KD of MS2 coat protein; designed switch direction (-1 OFF switch, 1 ON switch): -1; higher = weaker reporter binding
# Measurement conditions: input ligand: none
The reply should contain only the number, in nM.

For orientation, consider the following solved cases.
chain_sequence="UACAUGAGGAUCACCCAUGUUUUGUCGUGUAUGGUAUUUAUCUAGGAUAUCAAGUUAUUUAAUUAUGAGAAGGAGAAUAUUAAU [JMF's solution 34] (Eterna round: R96, puzzle: Exclusion NG 3)" measured_on="MS2 coat protein" property_name="apparent KD of MS2 coat protein" unit_symbol=nM numeric_value=34.5
chain_sequence="UUAAAUCAUGUAGGAUAUGCGUAGCGAAGCUAUGCAGAAGGACAUGAGGAUCACCCAUGUGCUUGCGUCCGCGUACGGAUGCUA [Mat - Exclusion NG 1 - Mod of JL - D66] (Eterna round: R96, puzzle: Exclusion NG 1)" measured_on="MS2 coat protein" property_name="apparent KD of MS2 coat protein" unit_symbol=nM numeric_value=134
chain_sequence="CUCCAGCAAGGAUAUACGUGUCUAAGAAGAGGUCUUAUGCUACAUGAGGAUCACCCAUGUAGAAGGUGCGGACA [EX2 C.2] (Eterna round: R97, puzzle: Exclusion 2)" measured_on="MS2 coat protein" property_name="apparent KD of MS2 coat protein" unit_symbol=nM numeric_value=15.4
chain_sequence="AUCCGGCAUGUAGGAUAUGGAUCCGAUUAGGAUCCAGAAGGACAUGAGGAUCACCCAUGUACAUGUAAACAGUCAUCACCGGAC [salish99_ExNG1_r04_201] (Eterna round: R96, puzzle: Exclusion NG 1)" measured_on="MS2 coat protein" property_name="apparent KD of MS2 coat protein" unit_symbol=nM numeric_value=67.3
chain_sequence="GCAGCAACUCUAAUCAACUAAACAUGAGGAUCACCCAUGUCUCAGGAUAUGGUCUGGAUUACAGGCCAGAAGGGAGAAAGCUGC [Eli exng3 - 043] (Eterna round: R96, puzzle: Exclusion NG 3)" measured_on="MS2 coat protein" property_name="apparent KD of MS2 coat protein" unit_symbol=nM numeric_value=12.3
chain_sequence="UUUUUAUAUGAAGGAUAUACUUAACAUGAGGAUCACCCAUGUGGUGUUGUGAGUGAGUGAGUUUAGUAGAAGGUCAAUUAUUUU [JMF's solution 6] (Eterna round: R96, puzzle: Exclusion NG 2)" measured_on="MS2 coat protein" property_name="apparent KD of MS2 coat protein" unit_symbol=nM numeric_value=261
chain_sequence="AAAAUAAAGAUAGGAUAUGCAGUAUAGCAAGAUCCGGACAUGAGGAUCACCCAUGUACUUCGAAAGCAGAAGGAUCAAACAAAA [Zamale] (Eterna round: R96, puzzle: Exclusion NG 2)" measured_on="MS2 coat protein" property_name="apparent KD of MS2 coat protein" unit_symbol=nM numeric_value=26.6
chain_sequence="AAUACAAGCUAUUGAUCCCACAUGAGGAUCACCCAUGUAUAUGCCCGUGACACGUGCAUGACGAUAGCUCGUCUUAU [Sensor-V1 #60] (Eterna round: R97, puzzle: Sensor, turn-off variant 1)" measured_on="MS2 coat protein" property_name="apparent KD of MS2 coat protein" unit_symbol=nM numeric_value=102

API: the following record is the query input.
// apparent KD of MS2 coat protein lookup, sequence = UCCUGACAUGAGGAUCACCCAUGUUAGGAUAUGACAUUUGGCGCGACAGUGUGGAGUGUUAGAAGGGAUGUGGG [-29.9, -27.2 kcal, A 24%] (Eterna round: R97, puzzle: Exclusion 1) , result: 16.5

Ref: the supplement of paper PMC9170038
